Molecular target: 5α-reductase (Homo sapiens, UniProt P18405)
Sequence (P18405 1-259): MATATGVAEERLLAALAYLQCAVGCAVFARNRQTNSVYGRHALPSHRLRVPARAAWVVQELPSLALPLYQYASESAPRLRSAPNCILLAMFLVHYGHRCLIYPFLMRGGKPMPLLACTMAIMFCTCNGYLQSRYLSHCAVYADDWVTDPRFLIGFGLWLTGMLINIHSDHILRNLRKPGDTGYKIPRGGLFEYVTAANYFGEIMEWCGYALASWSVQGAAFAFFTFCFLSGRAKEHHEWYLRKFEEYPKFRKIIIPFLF
Assay: 5α-reductase inhibition in DU 145 cells (conversion of tritiated 4-androstenedione)
metric: Ki (nM)

CCCCNC(=O)N(C1CC1)[C@H]1CC[C@H]2[C@@H]3CC[C@H]4N(C)C(=O)CC[C@]4(C)[C@H]3CC[C@]12C = 3.3
CC(C)NC(=O)N(C1CC1)[C@H]1CC[C@H]2[C@@H]3CC[C@H]4N(C)C(=O)CC[C@]4(C)[C@H]3CC[C@]12C = 14

[a] CN1C(=O)CC[C@]2(C)[C@H]3CC[C@]4(C)[C@@H](N(C=O)C5CCCCC5)CC[C@H]4[C@@H]3CC[C@@H]12
[b] CCCN(C=O)[C@H]1CC[C@H]2[C@@H]3CC[C@H]4N(C)C(=O)CC[C@]4(C)[C@H]3CC[C@]12C
In: Would you let me know which has the greater Ki value, a or b ? Refer to your chosen item by its label in the answer.
Out: a

* * *

Molecular target: 5α-reductase (Homo sapiens, UniProt P18405)
Assay: 5α-reductase inhibition in DU 145 cells (conversion of tritiated 4-androstenedione)
metric: Ki (nM)

Example entries and their recorded answers appear below.
CN1C(=O)CC[C@]2(C)[C@H]3CC[C@]4(C)[C@@H](N(C(=O)Nc5ccccc5)C5CC5)CC[C@H]4[C@@H]3CC[C@@H]12 = 2.3
CCCNC(=O)N(C1CC1)[C@H]1CC[C@H]2[C@@H]3CC[C@H]4N(C)C(=O)CC[C@]4(C)[C@H]3CC[C@]12C = 7.1
CC(C)CN(C=O)[C@H]1CC[C@H]2[C@@H]3CC[C@H]4N(C)C(=O)CC[C@]4(C)[C@H]3CC[C@]12C = 7.3

[1] CN(C=O)[C@H]1CC[C@H]2[C@@H]3CC[C@H]4N(C)C(=O)CC[C@]4(C)[C@H]3CC[C@]12C
[2] CCC(CC)N(C=O)[C@H]1CC[C@H]2[C@@H]3CC[C@H]4N(C)C(=O)CC[C@]4(C)[C@H]3CC[C@]12C
In: Sort 1 and 2 by Ki descending and give the first. Answer by quoting the chosen item's label.
Out: 1
(1: 29 nM, 2: 10.6 nM)

* * *

Biological target: 5α-reductase (Homo sapiens)
Test: 5α-reductase inhibition in DU 145 cells (conversion of tritiated 4-androstenedione)
metric: Ki (µM)

For orientation, consider the following solved cases.
CCNC(=O)N(C1CC1)[C@H]1CC[C@H]2[C@@H]3CC[C@H]4N(C)C(=O)CC[C@]4(C)[C@H]3CC[C@]12C [EM 392] = 0.0135
CN(C(=O)Nc1ccccc1)[C@H]1CC[C@H]2[C@@H]3CC[C@H]4N(C)C(=O)CC[C@]4(C)[C@H]3CC[C@]12C [EM 408] = 0.0082

[P] CCCCN(C(C)=O)[C@H]1CC[C@H]2[C@@H]3CC[C@H]4N(C)C(=O)CC[C@]4(C)[C@H]3CC[C@]12C [EM 424]
[Q] CN1C(=O)CC[C@]2(C)[C@H]3CC[C@]4(C)[C@@H](N(C(=O)NC5CCCCC5)C5CC5)CC[C@H]4[C@@H]3CC[C@@H]12 [EM 397]
In: In the pair P and Q , the larger recorded Ki belongs to which? Selection: enter the item's label.
Out: P
(P: 0.0118 µM, Q: 0.0032 µM)
